Measured drug sensitivity score of individual entries
System: normal primary NK cells, pool 1 (3 donors) (IL-2 2.5 ng/mL)
measurement_description: drug sensitivity score (DSS) (DSS units); higher = more sensitive; extreme values may be limits of the assay
condition_notes: 72 h
Reply briefly: the number, and no unit.

{"compound": "O=C(O)CCCCC(CCSCc1ccccc1)SCc1ccccc1 (stereo not drawn) [CPI-613] (max concentration tested 10000 nM)", "target_under_test": "normal primary NK cells, pool 1 (3 donors) (IL-2 2.5 ng/mL)", "drug sensitivity score": 0}
{"compound": "COc1cc2c(NC3CCN(C(C)C)CC3)nc(N3CCC(F)(F)CC3)nc2cc1OCCCN1CCCC1 [UNC0642] (max concentration tested 10000 nM)", "target_under_test": "normal primary NK cells, pool 1 (3 donors) (IL-2 2.5 ng/mL)", "drug sensitivity score": 8.52}

Lab note: next compound to report on.
What does the record list as drug sensitivity score for Cc1cc(C)c(CNC(=O)c2cc(-c3ccc(CN4CCOCC4)cc3)cc3c2cnn3C2CCCC2)c(=O)[nH]1 [EPZ-5687] (max concentration tested 10000 nM) ?
0

* * *

Measured relative IC50 of individual entries
Tested on: normal primary NK cells, pool 1 (3 donors), resting (IL-2 0 ng/mL)
measurement_description: relative IC50 (inflection point of fitted viability curve, relative to fitted max inhibition); higher = less sensitive
condition_notes: 72 h
Record the value in nM, omitting the unit from your answer.

Here's what some known entries look like.
{"compound": "Cc1sc2c(c1C)C(c1ccc(Cl)cc1)=N[C@@H](CC(=O)OC(C)(C)C)c1nnc(C)n1-2 [(+)JQ1]", "relative IC50 / nM": 1080}
{"compound": "O=C(Nc1cccnc1)N1CCC(Cc2cccc(Oc3ccc(C(F)(F)F)cn3)c2)CC1 [PF-3845]", "relative IC50 / nM": 3480}
{"compound": "Nc1ccccc1NC(=O)c1ccc(CNC(=O)OCc2cccnc2)cc1 [Entinostat]", "relative IC50 / nM": 582}
{"compound": "CCCCC(=O)OCC(=O)[C@]1(O)Cc2c(O)c3c(c(O)c2[C@@H](O[C@H]2C[C@H](NC(=O)C(F)(F)F)[C@H](O)[C@H](C)O2)C1)C(=O)c1c(OC)cccc1C3=O [Valrubicin]", "relative IC50 / nM": 179}
{"compound": "Nc1nc(F)nc2c1ncn2[C@@H]1O[C@H](CO)[C@@H](O)[C@@H]1O [Fludarabine]", "relative IC50 / nM": 491}
{"compound": "C=C1C[C@@H]2[C@H](CC[C@]3(C)C(=O)CC[C@@H]23)[C@@]2(C)C=CC(=O)C=C12 [Exemestane]", "relative IC50 / nM": 3290}
{"compound": "CNC(=O)c1cc(Oc2ccc(NC(=O)Nc3ccc(Cl)c(C(F)(F)F)c3)c(F)c2)ccn1 [Regorafenib]", "relative IC50 / nM": 1940}
{"compound": "Nc1nc(Cl)nc2c1ncn2[C@H]1C[C@H](O)[C@@H](CO)O1 [Cladribine]", "relative IC50 / nM": 7.37}
{"compound": "COc1cc2nccc(Oc3ccc(NC(=O)Nc4cc(C)on4)c(Cl)c3)c2cc1OC [Tivozanib]", "relative IC50 / nM": 1520}
{"compound": "CC(C)c1cc(-c2n[nH]c(=O)n2-c2ccc3c(ccn3C)c2)c(O)cc1O [Ganetespib]", "relative IC50 / nM": 6.18}

What does the record list as relative IC50 for NC(=O)N1CCC(CC(=O)N2CCC([C@H]3c4ncc(Br)cc4CCc4cc(Cl)cc(Br)c43)CC2)CC1 [Lonafarnib] ?
693

Now try `C[C@@]1(C(=O)Nc2ccc(F)nc2)CCCN1c1nc(Nc2cc(C3CC3)n[nH]2)c2cccn2n1` .
3420

Now try CCCCc1nc2cc(/C=C/C(=O)NO)ccc2n1CCN(CC)CC [Pracinostat] .
93.7

Now try C#Cc1cccc(Nc2ncnc3cc(OC)c(OCCCCCCC(=O)NO)cc23)c1 [CUDC-101] .
198
